Target: SARS-CoV-2 Papain-like (PLpro) protease (Severe acute respiratory syndrome coronavirus 2, UniProt P0DTD1)
Assay: SARS-CoV-2 Papain-like (PLpro) protease biochemical enzyme inhibition assay (ubiquitin-fluorophore substrate, Ub-R110)
Conditions: Ub-R110 substrate; run in duplicate; read-out: PLpro IC50
pIC50: −log10 of the molar value.
reportedEndpoint: pIC50

Guide cases for pIC50, answers given:
C[C@@H](C#Cc1nccs1)NC(=O)C(=O)NCc1ccccc1C(=O)NC1(c2cc(F)cc(-c3cnn(C4CC4)c3)c2)CC1 | > 7.00
N#CCNC(=O)C(=O)NCc1ccccc1C(=O)NC1(c2cc(-c3cnn(C(F)F)c3)cc3ccccc23)CC1 | > 7.00
N#CN1CC(CNC(=O)C(=O)NCc2ccccc2C(=O)NC2(c3cccc4ccccc34)CC2)C1 | > 7.00
C#CCNC(=O)C(=O)NCc1ccccc1C(=O)NC1(c2cc(-c3c(C)nn(C)c3C)ccc2Cl)CC1 | 6.00 to 7.00
CONC(=O)/C=C/CNC(=O)C(=O)NCc1ccccc1C(=O)NC1(c2cccc3ccccc23)CC1 | 6.00 to 7.00

Q: // lookup pIC50 for O=C(NCC#Cc1ncccc1Cl)C(=O)NCc1ccccc1C(=O)NC1(c2cc(F)cc(-c3cnn(C4CC4)c3)c2)CC1
Result: > 7.00

Q: // lookup pIC50 for C[C@@H](NC(=O)c1ccccc1CNC(=O)C(=O)NCC#N)c1cc(-c2cnn(C3CC3)c2)cc(C(F)(F)F)c1
Result: > 7.00

* * *

Molecular target: SARS-CoV-2 Papain-like (PLpro) protease (Severe acute respiratory syndrome coronavirus 2, UniProt P0DTD1)
Assay: SARS-CoV-2 Papain-like (PLpro) protease biochemical enzyme inhibition assay (ubiquitin-fluorophore substrate, Ub-R110)
Conditions: Ub-R110 substrate; run in duplicate; read-out: PLpro IC50
reportedEndpoint: IC50

O=C(NCC#Cc1ccc(F)cc1)C(=O)NCc1ccccc1C(=O)NC1(c2ccc3ccccc3c2)CC1 | > 10000 nM
COc1cc(C2(NC(=O)c3ccccc3CNC(=O)C(=O)N[C@@H](C)C#Cc3ncccc3Cl)CC2)cc2cn(C3CC3)nc12 | < 100 nM
O=C(NCC#Cc1ncc(F)cn1)C(=O)NCc1ccccc1C(=O)NC1(c2ccc3ccccc3c2)CC1 | < 100 nM
N#C[C@H]1CCCN1C(=O)C(=O)NCc1ccccc1C(=O)NC1(c2cccc3ccccc23)CC1 | > 10000 nM
CC(C)OC(=O)/C=C/CNC(=O)C(=O)NCc1ccccc1C(=O)NC1(c2cccc3ccccc23)CC1 | 100 to 1000 nM

Pending compound:
Q: // lookup IC50 for Cc1nn(C)cc1-c1cc(C2(NC(=O)c3ccccc3CNC(=O)C(=O)NCC#N)CC2)ccc1F
Result: 100 to 1000 nM

* * *

Target: SARS-CoV-2 Papain-like (PLpro) protease (Severe acute respiratory syndrome coronavirus 2, UniProt P0DTD1)
Assay: SARS-CoV-2 Papain-like (PLpro) protease biochemical enzyme inhibition assay (ubiquitin-fluorophore substrate, Ub-R110)
Conditions: Ub-R110 substrate; run in duplicate; read-out: PLpro IC50
reportedEndpoint: IC50

C[C@@H](C#Cc1ccc(C#N)cc1C(F)(F)F)NC(=O)C(=O)NCc1ccccc1C(=O)NC1(c2ccc3nn(C)cc3c2)CC1 [Example 109] | < 100 nM
CS(=O)(=O)n1cc(-c2cc(C3(NC(=O)c4ccccc4CNC(=O)C(=O)NCC#N)CC3)c3ccccc3c2)cn1 [Example 356] | < 100 nM
C[C@@H](NC(=O)c1ccccc1CNC(=O)C(=O)NCC#N)c1cc(-c2ccsc2)cc(C(F)(F)F)c1 [Example 466] | > 10000 nM
N#C[C@H]1CCN1C(=O)C(=O)NCc1ccccc1C(=O)NC1(c2cccc3ccccc23)CC1 [Example 120] | > 10000 nM
N#Cc1cccc(C#CCNC(=O)C(=O)NCc2ccccc2C(=O)NC2(c3ccc4ccccc4c3)CC2)c1 [Example 93] | > 10000 nM

Q: // lookup IC50 for COC(=O)Cn1cc(-c2cc(C3(NC(=O)c4ccccc4CNC(=O)C(=O)NCC#N)CC3)c3ccccc3c2)nn1 [Example 426]
Result: < 100 nM

Q: // lookup IC50 for C#CCNC(=O)C(=O)NCc1ccccc1C(=O)NC1(c2ccc(F)c(-c3cnn(C)c3)c2)CC1 [Example 232]
Result: < 100 nM

* * *

Target: SARS-CoV-2 Papain-like (PLpro) protease (Severe acute respiratory syndrome coronavirus 2, UniProt P0DTD1)
Test: SARS-CoV-2 Papain-like (PLpro) protease biochemical enzyme inhibition assay (ubiquitin-fluorophore substrate, Ub-R110)
Conditions: Ub-R110 substrate; run in duplicate; read-out: PLpro IC50
IC50: recorded values

Guide cases for IC50, answers given:
N#C/C=C/CNC(=O)C(=O)NCc1ccccc1C(=O)NC1(c2ccc3c4c(cccc24)CC3)CC1 | < 100 nM
COC(=O)/C=C/CNC(=O)C(=O)NCc1cc(F)c(F)cc1C(=O)N[C@H](C)c1cccc2ccccc12 | < 100 nM
C[C@@H](NC(=O)c1ccccc1CNC(=O)C(=O)NCC#N)c1cc(-c2ccoc2)cc(C(F)(F)F)c1 | < 100 nM
C#CCNC(=O)C(=O)NCc1ccccc1C(=O)NC1(c2cc(Cl)cc(-c3cnc(C(F)(F)F)nc3)c2)CC1 | < 100 nM
CC(C)n1nccc1C#CCNC(=O)C(=O)NCc1ccccc1C(=O)NC1(c2cc(F)cc(-c3cnn(C4CC4)c3)c2)CC1 | 100 to 1000 nM
N#CCNC(=O)C(=O)NCc1ccccc1C(=O)NC1(c2cc(-c3ccccc3)cc(C(F)(F)F)c2)CC1 | 100 to 1000 nM

Pending compound:
Q: // lookup IC50 for C#CCNC(=O)C(=O)NCc1ccccc1C(=O)NC1(c2cc(Oc3cccc(C(F)(F)F)c3)cc(C(F)(F)F)c2)CC1
Result: > 10000 nM

* * *

Tested on: SARS-CoV-2 replicon
Assay: microbe, parasite or virus in culture
Assay type: cell-based
Conditions: Severe acute respiratory syndrome coronavirus 2, Huh-7
pEC50: −log10 of the molar value.
reportedEndpoint: pEC50

CN1CCC(n2cc(-c3cc(F)cc(C4(NC(=O)c5ccccc5CNC(=O)C(=O)NCC#Cc5nccs5)CC4)c3)cn2)CC1 | > 6.00
O=C(NCC#Cc1ccccn1)C(=O)NCc1ccccc1C(=O)NC1(c2ccc3ccccc3c2)CC1 | > 6.00
COCc1ccc(-c2cc(C3(NC(=O)c4ccccc4CNC(=O)C(=O)NCC#N)CC3)c3ccccc3c2)s1 | > 6.00

Pending compound:
Q: Notebook: pull reported pEC50 for SARS-CoV-2 replicon, entry N#CCNC(=O)C(=O)NCc1ccccc1C(=O)NC1(c2cccc(Br)c2)CC1
Result: < 5.00

* * *

EC50: recorded values
Tested on: SARS-CoV-2 replicon
Test: microbe, parasite or virus in culture
Assay type: cell-based
Settings: Severe acute respiratory syndrome coronavirus 2, Huh-7

Guide cases for EC50, answers given:
O=C(NCC#CC(=O)N1CC2CC2C1)C(=O)NCc1ccccc1C(=O)NC1(c2cccc3ccccc23)CC1 (stereo not shown) | < 1000 nM
O=C(NCC#Cc1nccs1)C(=O)NCc1ccccc1C(=O)NC1(c2cc(F)cc(-n3cc(C4CC4)cn3)c2)CC1 | < 1000 nM
C#CCNC(=O)C(=O)NCc1ccccc1C(=O)NC1(c2cccc(-c3cccs3)c2Cl)CC1 | < 1000 nM
N#CCNC(=O)C(=O)NCc1ccccc1C(=O)NC1(c2cc(-c3cnn(C4CC4)c3)c3ccccc3c2)CC1 | 1000 to 10000 nM
C[C@@H](NC(=O)c1ccccc1CNC(=O)C(=O)NCC#N)c1cc(-c2cccs2)cc(C(F)(F)F)c1 | < 1000 nM
N#CN1CC[C@H](C(=O)NCc2ccccc2C(=O)NC2(c3cc(-c4cnn(C5CC5)c4)cc4ncccc34)CC2)C1 | < 1000 nM
C#CCNC(=O)C(=O)NCc1ccc(-c2ccn(C(F)F)n2)cc1C(=O)NC1(c2ccc(F)c3ccccc23)CC1 | < 1000 nM
COCC1CCCN1c1cc(C2(NC(=O)c3ccccc3CNC(=O)C(=O)NCC#N)CC2)c2ccccc2c1 (stereo not shown) | 1000 to 10000 nM
Cn1cc2cc(C3(NC(=O)c4ccccc4CNC(=O)C(=O)NCC#Cc4ncccc4OCC(F)F)CC3)ccc2n1 | < 1000 nM
Cn1cc2cc(C3(NC(=O)c4ccccc4CNC(=O)C(=O)NCC#Cc4nccs4)CC3)ccc2n1 | < 1000 nM

Q: // lookup EC50 for C#CCNC(=O)C(=O)NCc1ccccc1C(=O)NC1(c2ccc(F)c(Br)c2)CC1
Result: < 1000 nM

Q: // lookup EC50 for O=C(NCC#Cc1nc2ccccc2s1)C(=O)NCc1ccccc1C(=O)NC1(c2ccc3ccccc3c2)CC1
Result: 1000 to 10000 nM

* * *

System: SARS-CoV-2 replicon
Experiment: microbe, parasite or virus in culture
Format: cell-based
Conditions: Severe acute respiratory syndrome coronavirus 2, Huh-7
pEC50: −log10 of the molar value.
pEC50: recorded values

N#CC1(NC(=O)/C=C/CNC(=O)C(=O)NCc2ccccc2C(=O)NC2(c3cccc4ccccc34)CC2)CC1 [Example 564] | 5.00 to 6.00
N#CN1CC[C@@H](C(=O)NCc2ccccc2C(=O)NC2(c3cc(Br)cc4ccccc34)CC2)C1 [Example 416] | > 6.00
N#Cc1cccc(NC(=O)/C=C/CNC(=O)C(=O)NCc2ccccc2C(=O)NC2(c3cccc4ccccc34)CC2)c1 [Example 574] | 5.00 to 6.00

Pending compound:
Q: // lookup pEC50 for Cc1cccnc1C#CCNC(=O)C(=O)NCc1ccccc1C(=O)NC1(c2cc(F)cc(-c3cn(C)nc3C)c2)CC1 [Example 260]
Result: > 6.00
